tested on: hTERT-HMEC; assay: percentage of EdU-negative (G0-arrested) nuclei per well, 72 h; higher = more G0 arrest; conditions: protein concentration 0.357143 µM; reference: sequence is the full UniProt precursor, the tested protein was the secreted form or ectodomain
observed property: percentage of EdU-negative (%)
Express it in %; write the number only.

// solved cases for percentage of EdU-negative follow
Item: `MGPLSAPPCTEHIKWKGLLVTASLLNFWNLPTTAQVTIEAQPPKVSEGKDVLLLVHNLPQNLTGYIWYKGQIRDLYHYITSYVVDGQIIIYGPAYSGRETAYSNASLLIQNVTREDAGSYTLHIIKRGDGTRGVTGYFTFTLYLETPKPSISSSNLNPREAMETVILTCDPETPDTSYQWWMNGQSLPMTHRFQLSETNRTLFLFGVTKYTAGPYECEIRNSGSASRSDPVTLNLLHGPDLPRIHPSYTNYRSGDNLYLSCFANSNPPAQYSWTINGKFQQSGQNLFIPQITTKHSGLYVCSVRNSATGEESSTSLTVKVSASTRIGLLPLLNPT` | percentage of EdU-negative: 5.32

Looking up MAPRGCIVAVFAIFCISRLLCSHGAPVAPMTPYLMLCQPHKRCGDKFYDPLQHCCYDDAVVPLARTQTCGNCTFRVCFEQCCPWTFMVKLINQNCDSARTSDDRLCRSVS [Q6UW32] , I see its percentage of EdU-negative listed as 5.65

Proceed to the following item.
Reported percentage of EdU-negative ( MKLQCVSLWLLGTILILCSVDNHGLRRCLISTDMHHIEESFQEIKRAIQAKDTFPNVTILSTLETLQIIKPLDVCCVTKNLLAFYVDRVFKDHQEPNPKILRKISSIANSFLYMQKTLRQCQEQRQCHCRQEATNATRVIHDNYDQLEVHAAAIKSLGELDVFLAWINKNHEVMFSA [Q9UHD0] ) = 6.97

* * *

system: hTERT-HMEC; assay: percentage of EdU-negative (G0-arrested) nuclei per well, 72 h; higher = more G0 arrest; conditions: protein concentration 0.0225 µM; reference: sequence is the full UniProt precursor, the tested protein was the secreted form or ectodomain;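 further: secreted proteins added to cultured cells, EdU pulse at the end, nuclei found by Hoechst imaging, EdU status from nuclear versus surrounding ring intensity ratio, PBS as neutral control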
Property: percentage of EdU-negative; scope: individual sequences
Answer by giving the amount and then stating its unit.

Query MMSFLLGAILTLLWAPTAQAEVLLQPDFNAEKFSGLWYVVSMASDCRVFLGKKDHLSMSTRAIRPTEEGGLHVHMEFPGADGCNQVDAEYLKVGSEGHFRVPALGYLDVRIVDTDYSSFAVLYIYKELEGALSTMVQLYSRTQDVSPQALKSFQDFYPTLGLPKDMMVMLPQSDACNPESKEAP [Q6UWW0] on hTERT-HMEC; percentage of EdU-negative returned: 5.79%

`MARLALSPVPSHWMVALLLLLSAEPVPAARSEDRYRNPKGSACSRIWQSPRFIARKRGFTVKMHCYMNSASGNVSWLWKQEMDENPQQLKLEKGRMEESQNESLATLTIQGIRFEDNGIYFCQQKCNNTSEVYQGCGTELRVMGFSTLAQLKQRNTLKDGIIMIQTLLIILFIIVPIFLLLDKDDSKAGMEEDHTYEGLDIDQTATYEDIVTLRTGEVKWSVGEHPGQE` on hTERT-HMEC gives percentage of EdU-negative = 5.71%

The reported hTERT-HMEC percentage of EdU-negative of MRLPRRAALGLLPLLLLLPPAPEAAKKPTPCHRCRGLVDKFNQGMVDTAKKNFGGGNTAWEEKTLSKYESSEIRLLEILEGLCESSDFECNQMLEAQEEHLEAWWLQLKSEYPDLFEWFCVKTLKVCCSPGTYGPDCLACQGGSQRPCSGNGHCSGDGSRQGDGSCRCHMGYQGPLCTDCMDGYFSSLRNETHSICTACDESCKTCSGLTNRDCGECEVGWVLDEGACVDVDECAAEPPPCSAAQFCKNANGSYTCEECDSSCVGCTGEGPGNCKECISGYAREHGQCADVDECSLAEKTCVRKNENCYNTPGSYVCVCPDGFEETEDACVPPAEAEATEGESPTQLPSREDL [Q6UXH1] is 4.4%

Measured percentage of EdU-negative (hTERT-HMEC), entry MAAAAMAAAAGGGAGAARSLSRFRGCLAGALLGDCVGSFYEAHDTVDLTSVLRHVQSLEPDPGTPGSERTEALYYTDDTAMARALVQSLLAKEAFDEVDMAHRFAQEYKKDPDRGYGAGVVTVFKKLLNPKCRDVFEPARAQFNGKGSYGNGGAMRVAGISLAYSSVQDVQKFARLSAQLTHASSLGYNGAILQALAVHLALQGESSSEHFLKQLLGHMEDLEGDAQSVLDARELGMEERPYSSRLKKIGELLDQASVTREEVVSELGNGIAAFESVPTAIYCFLRCMEPDPEIPSAFNSLQRTLIYSISLGGDTDTIATMAGAIAGAYYGMDQVPESWQQSCEGYEETDILAQSLHRVFQKS [Q9NX46] : 4.73%

Further cases:
Item MVLCWLLLLVMALPPGTTGVKDCVFCELTDSMQCPGTYMHCGDDEDCFTGHGVAPGTGPVINKGCLRATSCGLEEPVSYRGVTYSLTTNCCTGRLCNRAPSSQTVGATTSLALGLGMLLPPRLL [Q8TDM5] ; assay system hTERT-HMEC; percentage of EdU-negative reported as 4.81%

Measured on hTERT-HMEC, `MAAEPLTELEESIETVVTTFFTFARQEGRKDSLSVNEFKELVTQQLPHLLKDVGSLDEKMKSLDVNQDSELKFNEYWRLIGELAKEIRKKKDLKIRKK` has a documented percentage of EdU-negative of 4.78%
